- tested.target: CDK7/cyclinH/MAT1 trimeric complex (Homo sapiens (Human), UniProt P50613)
- Sequence (P50613 whole entry): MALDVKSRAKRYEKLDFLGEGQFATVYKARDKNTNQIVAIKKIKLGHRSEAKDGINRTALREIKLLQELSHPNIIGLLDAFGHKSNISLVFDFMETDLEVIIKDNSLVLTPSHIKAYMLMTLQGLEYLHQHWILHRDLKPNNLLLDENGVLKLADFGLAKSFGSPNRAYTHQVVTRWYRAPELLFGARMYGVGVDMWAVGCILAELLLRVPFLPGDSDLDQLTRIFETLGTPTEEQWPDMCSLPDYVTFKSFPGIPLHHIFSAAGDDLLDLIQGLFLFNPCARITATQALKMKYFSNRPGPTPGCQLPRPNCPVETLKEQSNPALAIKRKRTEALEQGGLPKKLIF
- Sequence (P51946 whole entry partner): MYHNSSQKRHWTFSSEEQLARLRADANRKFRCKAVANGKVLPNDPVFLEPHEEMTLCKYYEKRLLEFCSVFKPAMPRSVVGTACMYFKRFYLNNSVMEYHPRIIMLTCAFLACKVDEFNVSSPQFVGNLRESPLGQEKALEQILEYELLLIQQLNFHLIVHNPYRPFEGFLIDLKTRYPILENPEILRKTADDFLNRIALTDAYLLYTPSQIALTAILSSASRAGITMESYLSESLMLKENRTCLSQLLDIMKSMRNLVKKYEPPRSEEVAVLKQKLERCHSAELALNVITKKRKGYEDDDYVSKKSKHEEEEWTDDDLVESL
- Sequence (P51948 whole entry partner): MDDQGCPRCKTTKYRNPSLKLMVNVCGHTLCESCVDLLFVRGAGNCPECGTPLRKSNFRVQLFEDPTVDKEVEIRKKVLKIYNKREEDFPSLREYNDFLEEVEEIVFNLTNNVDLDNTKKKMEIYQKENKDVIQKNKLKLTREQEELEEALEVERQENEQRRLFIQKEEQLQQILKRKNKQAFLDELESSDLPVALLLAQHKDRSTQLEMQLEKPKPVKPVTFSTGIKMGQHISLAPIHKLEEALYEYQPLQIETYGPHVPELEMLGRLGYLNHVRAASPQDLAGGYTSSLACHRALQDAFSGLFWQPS
- experimental.details: In vitro CDK7 assay, potency of irreversible covalent inhibitors (kinact/KI)
- experimental.setup: read-out: CDK7 (20 nM enz.) (kinact/ KI, M^−1*s^−1), 20 nM enz.
Please note: 1.0 applies when kinact/KI is 100 M⁻¹ s⁻¹ or greater, and 0.0 applies otherwise.

INSERT INTO assay_data (compound, category_label) VALUES
  ('C=CC(=O)N1CC(N2CC(c3cc(C)c4c(c3)Nc3ncnc(N5CCS(=N)(=O)CC5)c3CO4)C2)C1 [compound 110]', 1.0),
  ('C=CC(=O)N1CC(N2CCC(c3cc4c(c(C)n3)OCc3c(ncnc3N3CCS(=O)(=O)CC3)N4)CC2)C1 [compound 58]', 1.0),
  ('C=CC(=O)N1CC(N2CCC(c3cc(C)c4c(c3)Nc3ncnc(N5CCCC(C#N)C5)c3CO4)CC2)C1 (stereo not drawn) [compound 67]', 0.0),
  ('C=CC(=O)N1CCC(N2CC(c3cc(C)c4c(c3)Nc3ncnc(N5CCOCC5)c3CO4)C2)C1 (stereo not drawn) [compound 16]', 1.0),
  ('C=CC(=O)N1CC(N2CCC(c3cc(C)c4c(c3)Nc3ncnc(N5CCC(C#N)CC5)c3CO4)CC2)C1 [compound 69]', 0.0),
  ('C=CC(=O)N1CC[C@H](N2CC(c3cc(C)c4c(c3)Nc3ncnc(N5CCS(=O)(=O)CC5)c3[C@H](C)O4)C2)C1 (single isomer, unassigned) [compound 116]', 1.0),
  ('C=CC(=O)N1CCC(N2CC(c3cc(C)c4c(c3)Nc3ncnc(N5CCOCC5)c3CO4)C2)C(F)C1 (stereo not drawn) [compound 28]', 1.0),
  ('C=CC(=O)N1CCC(N2CC(c3cc4c(c(C(F)(F)F)c3)OCc3c(ncnc3-c3cnn(C)c3)N4)C2)CC1 [compound 44]', 0.0);

Does C=CC(=O)N1CC(N2CCC(c3cc(C#N)c4c(c3)Nc3ncnc(N5CCOCC5)c3CO4)CC2)C1 [compound 106] have a reported kinact/KI of at least 100 M⁻¹ s⁻¹?
1.0

Does C=CC(=O)N1CCC(N2CCN(c3cc(C)c4c(c3)Nc3ncnc(N5CCS(=O)(=O)CC5)c3CO4)CC2)CC1 [compound 89] have a reported kinact/KI of at least 100 M⁻¹ s⁻¹?
1.0

Does C#Cc1cc(C2CN([C@H]3CCN(C(=O)C=C)C3)C2)cc2c1O[C@@H](C)c1c(ncnc1N1CCS(=O)(=O)CC1)N2 [compound 194] have a reported kinact/KI of at least 100 M⁻¹ s⁻¹?
1.0

Does C=CC(=O)N1CC(N2CCC(c3cc(F)c4c(c3)Nc3ncnc(N5CCOCC5)c3[C@H](C)O4)CC2)C1 (single isomer, unassigned) [compound 49] have a reported kinact/KI of at least 100 M⁻¹ s⁻¹?
1.0

Does C=CC(=O)N1CCC(N2CC[C@H](c3cc(C)c4c(c3)Nc3ncnc(N5CCOCC5)c3CO4)C2)CC1 [compound 24] have a reported kinact/KI of at least 100 M⁻¹ s⁻¹?
0.0

Each recorded value in this set is attributed to patent US20240109912A1.
